B1: C9orf9 (parent)
chain: TKHKCRQLTKASLKPRGCSKPPWR

Variants of: B1
Test: protein stability index of a GFP-peptide fusion (GPS, HEK-293T) (PSI 1-6); higher = more stable;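 note: lentivirally expressed fusions sorted by FACS into six bins by GFP to DsRed ratio, PSI derived from sequencing read proportions per bin multiplied by bin number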
Details: c terminus: a fixed tail appended
observed.property: protein stability index
Just the number.

What value of protein stability index has been reported for the following variant? Q7Y
2.72

Looking for the measured protein stability index of K14M , can you help?
1.73

Would you kindly share the measured protein stability index for R6V ?
2.84

Field request: protein stability index | item: T1L
2.44

Would you kindly share the measured protein stability index for Q7H ?
2.5

Returns the measured protein stability index for the input variant. Input: R16W
1.69

Consider the variant A11G and give its measured protein stability index.
3.46

Look at this variant and give its reported protein stability index. C18F
2.69

Find the recorded protein stability index belonging to C5W and report it.
2.17

For the variant H3F , what protein stability index is on record?
2.27

Look up protein stability index: C18E
3.01

Recorded protein stability index of R6L , please.
2.56

Any idea what its protein stability index is? The variant is C18A
2.71

Given A11D , state its recorded protein stability index.
2.81

Could you tell me which protein stability index is on file for P22M ?
2.76

Which protein stability index reading was recorded for the variant P22C ?
1.83

What does the data say about its protein stability index? Entry: R24G
2.12

Look at this variant and give its reported protein stability index. K20R
3.14

I would be grateful if you could share the reported protein stability index for R24V .
2.14

Look up protein stability index for this variant: P21C
2.36

Which protein stability index reading was recorded for the variant A11T ?
2.92

Recorded protein stability index for S12Q , please?
3.25

Fill in: protein stability index of K10Q is ___
2.77

Returns the measured protein stability index for the input variant. Input: S19A
1.5

Tell me the measured protein stability index of G17C , please.
1.83

Give the measured protein stability index of K20P .
3.42

Item under review: S19V . Reported protein stability index?
3.35

Sample T1A — what was its protein stability index?
3.08

Using the record for C5L , report its protein stability index.
2.2

Item under review: Q7A . Reported protein stability index?
2.96

Query (variant): K2W ; field requested: protein stability index
2.57

Record request: protein stability index value, item K14V
2.79

State the recorded protein stability index for this entry: K2Y
2.1

I'd like to know its protein stability index. The variant in question is A11S
2.78

Please give the measured protein stability index for this variant: S19R
3.63

Could you share which protein stability index value was measured for R6E ?
3.17

Entry under review: L13N . Reported protein stability index?
2.92

Entry under review: P15T . Reported protein stability index?
2.67

Quick check: protein stability index of C18K ?
3.42

May I ask what protein stability index has been recorded for R24W ?
2.51

Requested field: protein stability index. Item: R6Y
3.72

// protein stability index lookup, key: H3R
3.11

Param item = R24A ; retrieve measured protein stability index.
2.95

Entry L8S has what protein stability index?
3.12

Could you tell me which protein stability index is on file for T1R ?
3.56

// query protein stability index value for entry W23R
3.96
